# test target: complex II (succinate:quinone reductase, SQR) (Echinococcus multilocularis, UniProt A0A1Z4EAW8+A0A1Z4EAX0+A0A1Z4EAX1)
# Sequence (A0A1Z4EAV8 entry or part of it): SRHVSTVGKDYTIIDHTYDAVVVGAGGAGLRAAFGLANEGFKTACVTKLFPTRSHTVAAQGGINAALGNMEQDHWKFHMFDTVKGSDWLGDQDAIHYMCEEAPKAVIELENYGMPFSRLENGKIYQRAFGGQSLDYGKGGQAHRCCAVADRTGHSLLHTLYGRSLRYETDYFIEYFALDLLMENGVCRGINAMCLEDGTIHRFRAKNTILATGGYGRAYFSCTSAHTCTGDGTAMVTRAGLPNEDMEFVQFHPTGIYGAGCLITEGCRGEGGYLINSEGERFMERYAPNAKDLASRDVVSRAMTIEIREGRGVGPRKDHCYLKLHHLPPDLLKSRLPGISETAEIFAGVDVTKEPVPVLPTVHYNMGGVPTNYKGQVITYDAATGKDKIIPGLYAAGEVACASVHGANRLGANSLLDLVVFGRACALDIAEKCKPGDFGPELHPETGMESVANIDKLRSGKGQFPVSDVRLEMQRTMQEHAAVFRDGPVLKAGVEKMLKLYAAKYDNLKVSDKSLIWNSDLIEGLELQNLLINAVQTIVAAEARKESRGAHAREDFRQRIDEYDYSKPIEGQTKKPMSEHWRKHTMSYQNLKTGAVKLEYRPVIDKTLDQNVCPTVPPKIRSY
# Sequence (A0A1Z4EAX1 entry or part of it): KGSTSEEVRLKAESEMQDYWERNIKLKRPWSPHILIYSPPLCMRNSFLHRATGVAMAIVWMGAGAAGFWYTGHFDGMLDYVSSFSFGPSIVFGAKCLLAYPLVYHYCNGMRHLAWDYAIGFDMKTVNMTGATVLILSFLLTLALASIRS
# Sequence (A0A1Z4EAX0 entry or part of it): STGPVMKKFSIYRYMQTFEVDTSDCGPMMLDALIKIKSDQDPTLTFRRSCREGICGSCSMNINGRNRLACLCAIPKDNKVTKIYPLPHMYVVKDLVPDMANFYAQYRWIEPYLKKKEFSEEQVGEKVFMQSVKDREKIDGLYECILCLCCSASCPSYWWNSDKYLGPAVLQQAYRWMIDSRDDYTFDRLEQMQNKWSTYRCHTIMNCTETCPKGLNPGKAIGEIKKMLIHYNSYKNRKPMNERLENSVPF
# Sequence (A0A1Z4EAW8 entry or part of it): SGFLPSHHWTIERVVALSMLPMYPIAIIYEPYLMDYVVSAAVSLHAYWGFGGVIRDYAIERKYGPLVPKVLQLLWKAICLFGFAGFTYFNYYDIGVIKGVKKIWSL
# assay overview: Succinate:quinone reductase (SQR) activity (complex II) in protoscoleces mitochondrial fraction
# Type: biochemical
# condition label: IC50, E. multilocularis SQR inhibition, Table 5, furanone ring-substituted derivatives; mean ± SEM
# Procedure: Cyst tissues containing E. multilocularis (Nemuro strain) protoscoleces isolated from infected hispid cotton rats, Sigmodon hispidus, were used. The tissues were shredded through a metal mesh (0.5 mm diameter). […] NADH:quinone reductase activity (complex I), succinate:quinone reductase activity (complex II), and succinate:cytochrome c reductase activity (complexes II to III) were measured using a UV-3000 spectrophotometer (Shimadzu, Kyoto, Japan) as described previously ([4], [6]). […]
pIC50: −log10 of the molar value.
Parameter pIC50: see the listing below.

{"molecule": "C/C(=C\\Cc1c(O)c(Cl)c(C)c(C=O)c1O)CC/C=C(\\C)[C@@H]1CC(=O)C(C)(C)O1", "reading qualifier": "=", "pIC50": 5.96}
{"molecule": "C#CCOC/C(C)=C/CC/C(C)=C/Cc1c(O)c(Cl)c(C)c(C=O)c1O", "reading qualifier": "=", "pIC50": 6.59}
{"molecule": "C/C(=C\\CC/C(C)=C/Cc1c(O)c(Cl)c(C)c(C=O)c1O)CO", "reading qualifier": "<", "pIC50": 5.00}
{"molecule": "C/C(=C\\Cc1c(O)c(Cl)c(C)c(C=O)c1O)CC/C=C(\\C)COC(=O)C(C)(C)C", "reading qualifier": "=", "pIC50": 6.31}
{"molecule": "CC(C)=CCC/C(C)=C/CC/C(C)=C/Cc1c(O)c(Cl)c(C)c(C=O)c1O [Compound D2]", "reading qualifier": "=", "pIC50": 6.51}

---

# test target: complex II (succinate:quinone reductase, SQR) (Echinococcus multilocularis, UniProt A0A1Z4EAW8+A0A1Z4EAX0+A0A1Z4EAX1)
# assay overview: Succinate:quinone reductase (SQR) activity (complex II) in protoscoleces mitochondrial fraction
# Assay type: biochemical
# condition label: IC50 Succinate:quinone reductase (SQR) (complex II), E. multilocularis protoscoleces mitochondria; mean ± SEM; Table 1
Binarize IC50 at 100 nM; below is yes, at or above is no.

{"molecule": "CC(=O)c1cc(Cl)c(O)c(C/C=C(\\C)CCC=C(C)C)c1O", "label": "yes"}
{"molecule": "CC(=O)c1cc(Cl)c(O)c(C/C=C(\\C)CC/C=C(\\C)CCC=C(C)C)c1O", "label": "yes"}
{"molecule": "CC(C)=CCC/C(C)=C/CC/C(C)=C/Cc1c(O)c(Cl)c(C)c(C=O)c1O [Compound D2]", "label": "no"}
{"molecule": "CC(=O)c1c(C)c(Cl)c(O)c(C/C=C(\\C)CC/C=C(\\C)CCC=C(C)C)c1O", "label": "no"}
{"molecule": "CC(C)=CCC/C(C)=C/CC/C(C)=C/Cc1c(O)c(Cl)cc(C=O)c1O [Compound D1]", "label": "yes"}
{"molecule": "C/C(=C\\Cc1c(O)c(Cl)c(C)c(C=O)c1O)CC/C=C(\\C)[C@@H]1CC(=O)C(C)(C)O1", "label": "no"}

---

# test target: complex II (succinate:quinone reductase, SQR) (Echinococcus multilocularis, UniProt A0A1Z4EAW8+A0A1Z4EAX0+A0A1Z4EAX1)
# assay overview: Succinate:quinone reductase (SQR) activity (complex II) in protoscoleces mitochondrial fraction
# Assay type: biochemical
# condition label: figure legends, supplement; read-out: IC50 against E. multilocularis complex II (SQR)

{"compound": "CC(C)(C)c1ccc(CNC(=O)c2ccccc2C(F)(F)F)cc1 [NN23, reference compound]", "IC50": "> 20 µM"}

---

# test target: complex II (succinate:quinone reductase, SQR) (Echinococcus multilocularis, UniProt A0A1Z4EAW8+A0A1Z4EAX0+A0A1Z4EAX1)
# assay overview: Succinate:quinone reductase (SQR) activity (complex II) in protoscoleces mitochondrial fraction
# Format: biochemical
# condition label: IC50, inhibition of E. multilocularis SQR, Table 2, substitutions on the benzene group; mean ± SEM
pIC50: −log10 of the molar value.
# pIC50 per entry

{"compound": "COc1c(Cl)c(C)c(C=O)c(O)c1C/C=C(\\C)CC/C=C(\\C)C1CC(=O)C(C)(C)O1 (stereo not shown)", "reading qualifier": "<", "pIC50": 5.00}
{"compound": "COC(=O)c1c(C)c(Cl)c(O)c(C/C=C(\\C)CCC=C(C)C)c1O", "reading qualifier": "<", "pIC50": 5.00}
{"compound": "CC(=O)c1c(C)c(Cl)c(O)c(C/C=C(\\C)CCC=C(C)C)c1O", "reading qualifier": "=", "pIC50": 6.68}
{"compound": "CC(=O)c1cc(Cl)c(O)c(C/C=C(\\C)CCC=C(C)C)c1O", "reading qualifier": "=", "pIC50": 7.33}
{"compound": "C/C(=C\\Cc1c(O)c(Cl)cc(C=O)c1O)CC/C=C(\\C)C1CC(=O)C(C)(C)O1 (stereo not shown)", "reading qualifier": "=", "pIC50": 6.26}
{"compound": "C/C(=C\\Cc1c(O)c(Cl)c(C)c(C=O)c1O)CC/C=C(\\C)[C@@H]1CC(=O)C(C)(C)O1", "reading qualifier": "=", "pIC50": 5.96}
{"compound": "CC(C)=CCC/C(C)=C/Cc1c(O)cc(C)c(C=O)c1O", "reading qualifier": "<", "pIC50": 5.00}
